Entries and their growth
system: NCI-H23 lung; assay: NCI-60 one-dose screen, 48 h (100 = growth as untreated, 0 = no growth, -100 = all killed); settings: 10 µM unless noted
The panel holds about 83,000 compounds, 20% with a hit somewhere; the sample as a whole holds those more often.

>  <compound>
COc1ccc(OC)c(NC2=C(Cl)C(=O)C(C)=C(C)C2=O)c1

>  <measurement-target>
NCI-H23 lung

>  <growth / %>
85.8

$$$$
>  <compound>
CCOC(=O)Nc1ccc(-c2nc(-c3cccc(O)c3)c(-c3ccnc(Br)c3)[nH]2)cc1

>  <measurement-target>
NCI-H23 lung

>  <growth / %>
31

$$$$
>  <compound>
COc1cc2cc(Oc3ccc(NC(=O)Nc4cc(C(F)(F)F)cc(C(F)(F)F)c4)cc3)c(C)nc2cc1OCCN(C)C

>  <measurement-target>
NCI-H23 lung

>  <growth / %>
104

$$$$
>  <compound>
O=C1NC(=O)c2c1c1c3ccccc3ccc1c1[nH]c3ccccc3c21

>  <measurement-target>
NCI-H23 lung

>  <growth / %>
15.8

$$$$
>  <compound>
COc1cc(OC)c(S(N)(=O)=O)cc1C(=O)/C=C/c1ccccc1

>  <measurement-target>
NCI-H23 lung

>  <growth / %>
28.2

$$$$
>  <compound>
C#C[C@]1(O)CC[C@H]2[C@@H]3CC=C4c5sc(Nc6ccc(OC)nc6)nc5CC[C@]4(C)[C@H]3CC[C@@]21C

>  <measurement-target>
NCI-H23 lung

>  <growth / %>
63.1

$$$$
>  <compound>
CCOP(=O)(OCC)OC[C@]12CCC(C)(C)C[C@H]1C1=CC[C@@H]3[C@@]4(C)C/C(=C\c5cccnc5)[C@H](OP(=O)(OCC)OCC)C(C)(C)[C@@H]4CC[C@@]3(C)[C@]1(C)CC2

>  <measurement-target>
NCI-H23 lung

>  <growth / %>
18.3

$$$$
>  <compound>
Cc1ccccc1NC1CC(=O)N(c2ccc(Cl)cc2Cl)C1=O (stereo not drawn)

>  <measurement-target>
NCI-H23 lung

>  <growth / %>
102

$$$$
>  <compound>
O=c1c2ccccc2nc(COc2ccccc2)n1/N=C/C=C/c1ccccc1

>  <measurement-target>
NCI-H23 lung

>  <growth / %>
95.9

$$$$
>  <compound>
Oc1ccc(CSc2nnc(-c3ccncc3)o2)c2cccnc12

>  <measurement-target>
NCI-H23 lung

>  <growth / %>
17.7

$$$$
>  <compound>
CN(c1ccc(Cl)cc1)S(=O)(=O)c1ccc(-c2cnc(C3CC3)o2)cc1

>  <measurement-target>
NCI-H23 lung

>  <growth / %>
23.8

$$$$
>  <compound>
COc1ccc(CN2C(=O)/C(=C/c3nc(CO)cs3)SC2=S)cc1

>  <measurement-target>
NCI-H23 lung

>  <growth / %>
92.6

$$$$
>  <compound>
CCN1C(=O)N(CC)C2SC(N/N=C/c3cccs3)=NC21 (stereo not drawn)

>  <measurement-target>
NCI-H23 lung

>  <growth / %>
25.8

$$$$
>  <compound>
Cc1cc(=O)n2nc(-c3c[nH]c4ccccc34)sc2n1

>  <measurement-target>
NCI-H23 lung

>  <growth / %>
92.6

$$$$
>  <compound>
C=C1C(=O)O[C@@H]2C[C@@H](C)[C@H](OC)CC(=O)[C@](C)(OC(C)=O)C[C@H](OC(=O)/C(C)=C\C)[C@@H]12

>  <measurement-target>
NCI-H23 lung

>  <growth / %>
70

$$$$
>  <compound>
CC(C)C[C@H]1C(=O)O[C@H](C(C)C)C(=O)N(C)[C@@H](C(C)C)C(=O)O[C@H](C(C)C)C(=O)N(C)[C@@H](C(C)C)C(=O)O[C@H](C(C)C)C(=O)N1C

>  <measurement-target>
NCI-H23 lung

>  <growth / %>
6.64

$$$$
>  <compound>
CNC(=O)c1cc(Oc2ccc3nc(NC(=O)c4cccc(C(F)(F)F)c4)sc3c2)ccn1

>  <measurement-target>
NCI-H23 lung

>  <growth / %>
101

$$$$
>  <compound>
COc1ccc(OC)c([C@H]2c3[nH]c4ccccc4c3C[C@H]3C(=O)N(CCCCCCC(=O)NO)CC(=O)N23)c1

>  <measurement-target>
NCI-H23 lung

>  <growth / %>
100

$$$$

Source listed as PubChem BioAssay (NCI).
